Could you please report measured TGI for the items listed next?
Tested on: HS 578T breast
Assay: NCI tumour cell line growth inhibition, 48 h

Fill blank: measured TGI of the compound CCOC(=O)/C(C#N)=C/c1ccc(SCc2ccco2)c([N+](=O)[O-])c1 is ____. > 100 µM

Fill blank: measured TGI of the compound COc1cccc(N=Cc2cc(OC)c(OC)c(OC)c2)c1 is ____. > 100 µM

Fill blank: measured TGI of the compound CCOP(=O)(/C=C/n1ccc(N)nc1=O)OCC is ____. > 100 µM

Fill blank: measured TGI of the compound CC1=NN(C(=O)CC(=O)N(C(=O)c2ccccc2)c2ccc(Cl)cc2)C(=O)C1N=Nc1ccc([N+](=O)[O-])cc1 (configuration not stated) is ____. > 10 µM

Fill blank: measured TGI of the compound Cc1cc(C2CC(O)C(CO)O2)c(Cl)cc1Cl (configuration not stated) is ____. > 100 µM

Fill blank: measured TGI of the compound CN(C)CCCNCc1ccc(-c2ccc(F)c(Cl)c2)o1 is ____. 26.8 µM

Fill blank: measured TGI of the compound CC(C)OC(=O)c1cc(NS(=O)(=O)c2ccc3ccccc3c2)cc(C(=O)OC(C)C)c1 is ____. 49.8 µM

Fill blank: measured TGI of the compound Cc1cc2c3ccccc3nc2c2cc[nH]c(C)c12 is ____. > 65.5 µM

Fill blank: measured TGI of the compound CC[C@@]1(O)C(=O)OCc2c1cc1n(c2=O)Cc2c-1nc1ccccc1c2Cl is ____. 43.3 µM

Fill blank: measured TGI of the compound CC(=O)c1c2c(cc3c1CC1(C3)Cc3cc4c(c(C(=O)O)c3C1)CCCC4)CCCC2 (configuration not stated) (tested in a mixture with another compound) is ____. > 100 µM

Fill blank: measured TGI of the compound C/C=C/[C@@H](C(=O)OC)N1C(=O)c2ccccc2[C@H]1O is ____. > 100 µM

Fill blank: measured TGI of the compound COc1ccc2nc3cccc([N+](=O)[O-])c3c(NCCNCCO)c2c1 is ____. 0.361 µM

* * *

Could you please report measured TGI for the items listed next?
System: NCI-H226 lung
Assay: NCI tumour cell line growth inhibition, 48 h

Fill blank: measured TGI of the compound CN(C)CCNc1ccc(NCC[N+](C)(C)Cc2ccc([N+](=O)[O-])cc2)c2c1C(=O)c1ccccc1C2=O is ____. > 25 µM

Fill blank: measured TGI of the compound CN/N=C(\C)c1c(O)cc(C)oc1=O is ____. > 100 µM

Fill blank: measured TGI of the compound CCOP1(=O)C=CC(Cl)=C(C)C1 (stereo unspecified) is ____. > 100 µM

Fill blank: measured TGI of the compound CC1(C)CC[C@]2(C(N)=O)CC[C@]3(C)C(=CC[C@@H]4[C@@]5(C)C/C(=C/c6cccnc6)C(=O)C(C)(C)[C@@H]5CC[C@]43C)[C@@H]2C1 is ____. 5.78 µM

Fill blank: measured TGI of the compound Cc1ccc(NC(=O)SCCC(=O)O)cc1 is ____. > 100 µM

Fill blank: measured TGI of the compound O=C(Nc1ccccc1)c1cc(S(=O)(=O)n2cc[nH]c2=O)c(S)cc1Cl is ____. > 100 µM

Fill blank: measured TGI of the compound O=c1c2ccc(Cl)cc2oc2c(CNc3ccc(S(=O)(=O)Nc4nccs4)cc3)cccc12 is ____. > 100 µM

Fill blank: measured TGI of the compound O=C(O)CSc1ccc(N=C=S)cc1 is ____. > 100 µM

Fill blank: measured TGI of the compound COc1ccc(OC)c2c1C(=O)C(=O)C(Cl)=C2O is ____. > 100 µM

Fill blank: measured TGI of the compound Cn1cc(-c2ccc(-c3cn(C)c4ccc(Cl)cc34)[nH]2)c2cc(Cl)ccc21 is ____. 4.25 µM

Fill blank: measured TGI of the compound COc1cc2c(cc1OCc1ccccc1)N=CC1C[C@@H](O)CN1C2=O (stereo partly specified) is ____. > 100 µM
